Please go through the items and note down their relative viability.
system: SW1353; experiment: relative viability vs DMSO control (72 h) (fraction); higher = more viable cells; conditions: 0.00017 µM
One number for each entry.

Cc1cn(-c2cc(NC(=O)c3ccc(C)c(Nc4nccc(-c5cccnc5)n4)c3)cc(C(F)(F)F)c2)cn1 ... 0.933
C[C@@H](Oc1cc(-c2cnn(C3CCNCC3)c2)cnc1N)c1c(Cl)ccc(F)c1Cl ... 1
COc1cc(OC)cc(N(CCNC(C)C)c2ccc3ncc(-c4cnn(C)c4)nc3c2)c1 ... 1.07
CN1CCN(CCOc2cc(OC3CCOCC3)c3c(Nc4c(Cl)ccc5c4OCO5)ncnc3c2)CC1 ... 1.03

State the recorded relative viability for every item in the following list.
1. Cc1cc(Nc2ncc(Cl)c(Nc3ccccc3S(=O)(=O)C(C)C)n2)c(OC(C)C)cc1C1CCNCC1
2. COc1cc2ncnc(Nc3cccc(Cl)c3F)c2cc1OC(=O)N1CCN(C)C[C@H]1C

OUT:
1. 0.94
2. 1.02

State the recorded relative viability for every item in the following list.
1. N#Cc1ccnc(N2C(=O)CC[C@H]2C(=O)N(c2cncc(F)c2)[C@H](C(=O)NC2CC(F)(F)C2)c2ccccc2Cl)c1
2. NC(=O)c1cnc2[nH]ccc2c1N[C@@H]1[C@@H]2CC3C[C@H]1C[C@@](O)(C3)C2

OUT:
1: 0.966; 2: 1.03
